Assayed system: T1, IL-18 receptor (IL-18Rα and IL-18Rβ) (UniProt Q13478 19-541; O95256 20-599, limits assumed)
T1 sequence (looked up) 1: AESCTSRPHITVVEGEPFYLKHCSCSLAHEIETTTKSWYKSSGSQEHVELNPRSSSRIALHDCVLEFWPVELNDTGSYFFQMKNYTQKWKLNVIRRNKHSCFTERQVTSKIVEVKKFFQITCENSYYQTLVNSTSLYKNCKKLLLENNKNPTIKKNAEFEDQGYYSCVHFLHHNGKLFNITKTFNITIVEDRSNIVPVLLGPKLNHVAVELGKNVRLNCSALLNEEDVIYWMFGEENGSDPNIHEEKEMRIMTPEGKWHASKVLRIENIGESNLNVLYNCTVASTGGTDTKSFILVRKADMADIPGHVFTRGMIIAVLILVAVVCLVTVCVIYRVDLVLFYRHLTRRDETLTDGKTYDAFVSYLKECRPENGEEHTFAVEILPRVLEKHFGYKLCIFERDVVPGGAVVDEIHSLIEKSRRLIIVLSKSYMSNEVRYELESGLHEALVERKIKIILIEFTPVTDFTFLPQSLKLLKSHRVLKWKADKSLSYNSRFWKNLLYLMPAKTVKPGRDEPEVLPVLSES
T1 sequence (looked up) 2: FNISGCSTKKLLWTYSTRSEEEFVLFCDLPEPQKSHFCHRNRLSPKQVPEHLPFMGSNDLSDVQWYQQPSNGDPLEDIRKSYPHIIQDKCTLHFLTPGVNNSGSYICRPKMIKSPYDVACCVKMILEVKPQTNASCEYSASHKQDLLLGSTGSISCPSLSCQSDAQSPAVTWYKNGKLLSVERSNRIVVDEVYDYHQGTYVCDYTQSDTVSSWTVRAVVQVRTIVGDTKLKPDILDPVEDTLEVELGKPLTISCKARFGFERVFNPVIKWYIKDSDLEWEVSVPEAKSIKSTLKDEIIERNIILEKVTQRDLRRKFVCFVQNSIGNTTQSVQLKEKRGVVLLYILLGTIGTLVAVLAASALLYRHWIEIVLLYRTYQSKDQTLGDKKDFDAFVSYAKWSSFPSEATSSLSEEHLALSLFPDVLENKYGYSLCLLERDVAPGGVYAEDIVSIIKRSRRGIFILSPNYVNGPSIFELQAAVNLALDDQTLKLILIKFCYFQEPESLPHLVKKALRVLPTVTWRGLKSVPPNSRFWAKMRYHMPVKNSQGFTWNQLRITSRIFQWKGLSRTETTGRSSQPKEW
Test protocol: cell-based or functional assay
Assign EC50 (pM), PBMC IFN gamma assay, average to each entry below.
Numbers only, in pM.

Binder: hIL18 (G3V, E6K, K53A, M60K)- KiH (Fc fusion) YFVKLKSKLSVIRNLNDQVLFIDQGNRPLFEDMTDSDMRDNAPRTIFIISMYADSQPRGKAVTISVKSEKISTLSSENKIISFKEMNPPDNIKDTKSDIIFFQRSVPGHDNKMQFESSSYEGYFLASEKERDLFKLILKKEDELGDRSIMFTVQNED
EC50 (pM), PBMC IFN gamma assay, average: 5.46

Could you now consider this next binder?
Briefly, EC50 (pM), PBMC IFN gamma assay, average measured for hIL18 (G3T, K53A, M60K) - KiH (Fc fusion) YFTKLESKLSVIRNLNDQVLFIDQGNRPLFEDMTDSDMRDNAPRTIFIISMYADSQPRGKAVTISVKSEKISTLSSENKIISFKEMNPPDNIKDTKSDIIFFQRSVPGHDNKMQFESSSYEGYFLASEKERDLFKLILKKEDELGDRSIMFTVQNED : 195

Source listed as patent US20240182536A1.
